Assay: Mouse PK test of peptides (intravenous and oral administration)
Condition Set: male, C57BL/6J, in vivo, po, 20 mg/kg
Positions of bridges follow the written chain, without caps; N, C: chain ends. Non-standard residues stand in square brackets, D forms with d. Residues, ends and D or L forms follow the SMILES beside them. *: point of attachment. NMeF = CN[C@@H](Cc1ccccc1)C(=O)O; NMeI = CC[C@H](C)[C@H](NC)C(=O)O; NMeL = CN[C@@H](CC(C)C)C(=O)O; NMeA = CN[C@@H](C)C(=O)O; Piperidide = C1CCN(*)CC1; NPrGly = CCCNCC(=O)O; Sar = CNCC(=O)O; tBu = CC(C)(C)*
Think of 10% as a floor: if bioavailability stands on it or above, it is True; beneath it, False.

Example entries and their recorded answers appear below.
CCCN1CC(=O)N(C)[C@@H](CC(C)C)C(=O)N[C@@H](COC(C)(C)C)C(=O)N(C)[C@@H](CC(C)C)C(=O)N[C@H](C(=O)N2CCCCC2)CC(=O)N[C@H](C)C(=O)N(C)[C@@H](C)C(=O)N(C)[C@@H](Cc2ccccc2)C(=O)N(C)[C@@H](CC(C)C)C(=O)N[C@@H]([C@@H](C)O)C1=O [DP-547] ([dA][NMeA][NMeF][NMeL]T[NPrGly][NMeL]S(tBu)[NMeL]D-Piperidide; lactam N-10) ... True
CC(C)C[C@@H]1NC(=O)[C@H](Cc2ccccc2)N(C)C(=O)[C@H](Cc2ccccc2)N(C)C(=O)[C@H](CC(C)C)NC(=O)[C@H](C)N(C)C(=O)[C@H]([C@@H](C)O)NC(=O)[C@H](C)N(C)C(=O)C[C@@H](C(=O)N2CCCCC2)NC(=O)[C@H](CC(C)C)N(C)C1=O [DP-125] ([NMeA]T[NMeA]L[NMeF][NMeF]L[NMeL]D-Piperidide; lactam N-9) ... True
CC[C@H](C)[C@H](NC(=O)[C@@H]1CCCN1C(=O)[C@@H]1CC(=O)N[C@@H](C)C(=O)N[C@@H](CC(C)C)C(=O)N(C)[C@@H]([C@@H](C)CC)C(=O)N[C@@H](C(C)C)C(=O)N(C)[C@@H](Cc2ccccc2)C(=O)N[C@@H](CC(C)C)C(=O)N(C)[C@@H](Cc2ccccc2)C(=O)N1)C(=O)N1CCCCC1 [DP-965] (AL[NMeI]V[NMeF]L[NMeF]DPI-Piperidide; lactam N-8) ... False

Task: bioavailability >= 10% for CCCN1CC(=O)N(C)[C@@H](CC(C)C)C(=O)N[C@@H]([C@@H](C)O)C(=O)N(C)[C@@H](C)C(=O)N(C)[C@@H](CC(C)C)C(=O)N(C)[C@@H]([C@@H](C)CC)C(=O)N[C@@H](COC(C)(C)C)C(=O)N[C@H](C(=O)N2CCCCC2)CC(=O)N(C)[C@@H](C)C(=O)N(C)[C@@H](Cc2ccccc2)C1=O [DP-540] ([NMeA][NMeF][NPrGly][NMeL]T[NMeA][NMeL][NMeI]S(tBu)D-Piperidide; lactam N-10) ?
Result: True

Task: bioavailability >= 10% for CC[C@H](C)[C@H]1C(=O)N[C@H](C(=O)N2CCCCC2)CC(=O)N[C@H](C(C)C)C(=O)N(C)[C@@H](Cc2ccccc2)C(=O)N(C)[C@@H](CC(C)C)C(=O)N[C@@H]([C@@H](C)O)C(=O)N(C)CC(=O)N(C)[C@@H](CC(C)C)C(=O)N[C@@H](COC(C)(C)C)C(=O)N1C [DP-265] ([dV][NMeF][NMeL]T[Sar][NMeL]S(tBu)[NMeI]D-Piperidide; lactam N-9) ?
Result: True

Each recorded value in this set is attributed to patent US9409952B2.
